Just for reference, ChEMBL document CHEMBL4393743 is where these values come from.

# Tested on: BGC-823
# test.details: Antiproliferative activity against human BGC823 cells assessed as cell growth inhibition incubated for 72 hrs by MTT assay
# Assay type: functional, cell-based
# measurement.conditions: BGC-823, 72 h
Here the recorded IC50 is given for each entry.
Please state the value followed by its unit.

{"structure.notation": "COc1ccc(/C=C(\\C)C(=O)c2cc(OC)c(OC)c(OC)c2)cc1OCCCC(=O)NO", "value.type": "IC50", "result": "2.4 µM"}
{"structure.notation": "COc1ccc(/C=C/C(=O)c2cc(OC)c(OC)c(OC)c2)cc1O", "value.type": "IC50", "result": "7.58 µM"}
{"structure.notation": "COc1ccc(/C=C(\\C)C(=O)c2cc(OC)c(OC)c(OC)c2)cc1OCCCCCCCC(=O)NO", "value.type": "IC50", "result": "15.2 µM"}

Could you now look at the following compound, please?
Reported IC50 for "COc1ccc(/C=C/C(=O)c2cc(OC)c(OC)c(OC)c2)cc1OCCCCCCC(=O)NO" : what is it? 11.5 µM
